Target: rat FAAH (Rattus norvegicus, UniProt P97612)
Sequence (P97612 1-579): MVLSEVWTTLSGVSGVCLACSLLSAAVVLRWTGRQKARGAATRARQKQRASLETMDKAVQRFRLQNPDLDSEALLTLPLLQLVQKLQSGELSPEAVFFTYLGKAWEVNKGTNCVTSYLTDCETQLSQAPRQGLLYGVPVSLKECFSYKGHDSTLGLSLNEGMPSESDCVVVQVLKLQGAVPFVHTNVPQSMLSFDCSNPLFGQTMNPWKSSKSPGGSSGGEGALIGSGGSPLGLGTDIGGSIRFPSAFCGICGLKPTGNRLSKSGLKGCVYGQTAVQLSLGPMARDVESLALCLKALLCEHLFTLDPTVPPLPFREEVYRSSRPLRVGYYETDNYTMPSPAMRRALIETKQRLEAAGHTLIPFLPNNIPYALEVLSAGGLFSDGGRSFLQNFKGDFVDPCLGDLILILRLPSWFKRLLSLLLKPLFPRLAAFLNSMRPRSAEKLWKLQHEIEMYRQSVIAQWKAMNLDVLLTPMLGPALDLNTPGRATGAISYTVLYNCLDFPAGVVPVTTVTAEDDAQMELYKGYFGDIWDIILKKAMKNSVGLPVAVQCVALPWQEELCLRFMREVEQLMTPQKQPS
property: IC50 (nM)

Entry COC(=O)c1cccc(-c2cnc(C(=O)CCc3ccc(-c4ccc(CN5CCOCC5)cc4)cc3)o2)n1 [Example 35] — recorded IC50 = 2

Entry O=C(O)c1cccc(-c2cnc(C(=O)CCc3ccc(-c4ccc(CN5CCOCC5)cc4)cc3)o2)n1 [Example 41] — recorded IC50 = 3

Entry O=C(O)c1cccc(-c2cnc(C(=O)CCc3ccc(-c4ccccc4)cc3)o2)n1 [Example 24] — recorded IC50 = 0.6

Entry COC(=O)c1cc(-c2cnc(C(=O)CCc3ccc(-c4ccccc4)cc3)o2)ccn1 [Example 28] — recorded IC50 = 1.5

Entry O=C(O)c1ccc(-c2cnc(C(=O)CCc3ccc(Oc4ccccc4)cc3)o2)nc1 [Example 15] — recorded IC50 = 0.2

Entry O=C(CCc1ccc(-c2ccccc2)cc1)c1ncc(-c2ccncc2)o1 [Example 30] — recorded IC50 = 3

Entry O=C(O)c1cccc(-c2cnc(C(=O)CCc3ccc(Oc4ccccc4)cc3)o2)n1 [Example 14] — recorded IC50 = 1.5

Entry CCOC(=O)c1cccc(-c2cnc(C(=O)CCc3ccc(-c4ccccc4)cc3)o2)n1 [Example 22] — recorded IC50 = 2

[I] COC(=O)c1cccc(-c2cnc(C(=O)CCc3ccc(-c4ccccc4)cc3)o2)n1 [Example 21]
[II] N#Cc1cccc(-c2cnc(C(=O)CCc3ccc(-c4ccccc4)cc3)o2)n1 [Example 20]
[III] COC(=O)c1cccc(-c2cnc(C(=O)CCc3ccc(Oc4ccccc4)cc3)o2)n1 [Example 12]
[IV] COC(=O)c1ccc(-c2cnc(C(=O)CCc3ccc(-c4ccccc4)cc3)o2)nc1 [Example 23]
[V] COC(=O)c1cccc(-c2cnc(C(=O)CCc3ccc(COc4ccccc4)cc3)o2)n1 [Example 16]
Falling order of IC50, please. Form entry: labels listed in requested order.
IV, III, II, V, I

[A] COC(=O)c1ccc(-c2cnc(C(=O)CCc3ccc(Oc4ccccc4)cc3)o2)nc1 [Example 13]
[B] O=C(CCc1ccc(-c2ccccc2)cc1)c1ncc(-c2cccnc2)o1 [Example 31]
Of A versus B , which is the one with smaller reported IC50? Give the chosen item's label as your response.
B
